Values from ChEMBL document CHEMBL4118036

Method: Inhibition of rat intestinal alpha-glucosidase using p-nitrophenyl-alpha-D-glucopyranoside as substrate pretreated for 10 mins followed by substrate addition measured after 30 mins
Below, each entry is listed alongside its reported pIC50.
Reminder that pIC50 means the negative base-10 logarithm of the concentration expressed in mol/L.

- Molecule: "COc1ccc(-c2cc(=O)c3c(O)c(O)c(OC)cc3o2)cc1OC"
  pIC50: 2.74

Now, please, on to the next compound.
# input Consider the compound COc1cc2oc(-c3ccc(O)c(O)c3)cc(=O)c2c(O)c1O and give its recorded pIC50.
# output 3.09

---

Method: Inhibition of rat intestinal alpha-glucosidase using p-nitrophenyl-alpha-D-glucopyranoside as substrate pretreated for 10 mins followed by substrate addition measured after 30 mins
pIC50: −log10 of the molar value.
Property label: pIC50

P: COc1cc(-c2cc(=O)c3c(O)c(O)c(OC)cc3o2)ccc1Oc1ccc(-c2cc(=O)c3c(O)c(O)c(OC)cc3o2)cc1OC
Q: C[C@H]1O[C@H](O[C@H]2[C@H](O)[C@@H](O)[C@@H](O[C@H]3[C@H](O)[C@@H](O)C(O)O[C@@H]3CO)O[C@@H]2CO)[C@H](O)[C@@H](O)[C@@H]1N[C@H]1C=C(CO)[C@@H](O)[C@H](O)[C@H]1O (stereo not given in full)
R: C[C@@H]1CC[C@@]23COC(=O)C2=C[C@@H](O[C@@H]2O[C@H](CO)[C@@H](O)[C@H](O)[C@H]2O)C[C@@H]3[C@]1(C)CCc1ccoc1
S: O=c1cc(-c2ccc(O)cc2)oc2cc(O[C@@H]3O[C@H](CO)[C@@H](O)[C@H](O)[C@H]3O)cc(O)c12
# input // smallest pIC50 at index 0, largest at the end Response format: the labels, sorted as the prompt asks.
# output R, S, Q, P
(R: 3.30, S: 3.70, Q: 4.00, P: 4.41)

---

Below, each entry is listed alongside its reported pIC50.
Experimental system: Alpha-glucosidase (Blautia obeum, UniProt A0A173Z7B1)
Sequence (A0A173Z7B1 whole entry): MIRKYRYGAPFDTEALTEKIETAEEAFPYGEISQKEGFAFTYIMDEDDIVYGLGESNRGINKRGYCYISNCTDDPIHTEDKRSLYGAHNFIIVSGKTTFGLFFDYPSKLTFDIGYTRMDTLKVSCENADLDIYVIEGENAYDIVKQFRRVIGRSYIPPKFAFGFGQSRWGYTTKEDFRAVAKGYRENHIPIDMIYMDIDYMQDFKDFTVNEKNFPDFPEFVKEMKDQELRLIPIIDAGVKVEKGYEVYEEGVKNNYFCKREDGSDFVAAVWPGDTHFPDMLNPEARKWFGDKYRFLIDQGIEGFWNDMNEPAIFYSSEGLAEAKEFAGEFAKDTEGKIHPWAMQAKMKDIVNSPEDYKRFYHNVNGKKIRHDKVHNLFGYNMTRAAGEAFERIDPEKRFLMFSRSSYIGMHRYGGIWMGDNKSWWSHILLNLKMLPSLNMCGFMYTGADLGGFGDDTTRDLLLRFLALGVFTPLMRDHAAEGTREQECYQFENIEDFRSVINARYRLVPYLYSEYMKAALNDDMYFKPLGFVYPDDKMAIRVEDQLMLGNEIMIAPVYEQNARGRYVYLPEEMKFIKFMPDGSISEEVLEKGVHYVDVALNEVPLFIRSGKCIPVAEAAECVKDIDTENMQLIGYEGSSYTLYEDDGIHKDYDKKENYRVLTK
Method: Inhibition of recombinant Ruminococcus obeum ATCC 29174 alpha-glucosidase expressed in Escherichia coli BL21(DE3) using p-nitrophenyl-alpha-D-glucopyranoside as substrate pretreated for 10 mins followed by substrate addition measured after 3 hrs
Reminder that pIC50 means the negative base-10 logarithm of the concentration expressed in mol/L.

- Molecule: "COc1cc2oc(-c3ccc(O)c(O)c3)cc(=O)c2c(O)c1O"
  pIC50: 4.22

Now, please, on to the next molecule.
# input Consider the molecule C[C@@H]1CC[C@@]23COC(=O)C2=C[C@@H](O[C@@H]2O[C@H](CO)[C@@H](O)[C@H](O)[C@H]2O)C[C@@H]3[C@]1(C)CCc1ccoc1 and give its recorded pIC50.
# output 3.40

---

Method: Inhibition of rat intestinal alpha-glucosidase using p-nitrophenyl-alpha-D-glucopyranoside as substrate pretreated for 10 mins followed by substrate addition measured after 30 mins
Property label: IC50

Please review the entries below; each comes with its answer.
- Molecule: "CO[C@@H]1C=C(CC[C@]2(C)[C@H](C)CC[C@@]34COC(=O)C3=C[C@@H](O[C@@H]3O[C@H](CO)[C@@H](O)[C@H](O)[C@H]3O)C[C@@H]42)C(=O)O1"
  IC50: "> 10 mM"
- Molecule: "C[C@@H]1CC[C@@]23COC(=O)C2=C[C@@H](O[C@@H]2O[C@H](CO)[C@@H](O)[C@H](O)[C@H]2O)C[C@@H]3[C@]1(C)CCC1=CCOC1=O"
  IC50: "> 10 mM"

Now, please, on to the next molecule.
# input Consider the molecule CC(=O)CC[C@]1(C)[C@H](C)CC[C@@]23COC(=O)C2=C[C@@H](O[C@@H]2O[C@H](CO)[C@@H](O)[C@H](O)[C@H]2O)C[C@@H]31 and give its recorded IC50.
# output > 10 mM
